# System: UO-31
# test summary: Growth inhibition of human UO-31 cells assessed as cell growth at 0.01 uM incubated for 48 hrs by sulforhodamine B assay relative to control
# Type: functional
# condition details: read-out: Activity
The label is T for growth at 0.01 µM below 90% and F for growth at 0.01 µM equal to or exceeding 90%.

compound string	category
CN1CCc2nc3sc(C(N)=O)c(N)c3c(-c3cccs3)c2C1	F
CCc1cccc(C)c1NC(=O)c1sc2nc3c(cc2c1N)C(=O)CCC3	T
Cc1ccc(NC(=O)c2sc3nc4c(cc3c2N)C(=O)CCC4)cc1C	T
Nc1c(C(=O)Nc2ccccc2)sc2nc3c(cc12)CN(Cc1ccccc1)CC3	T
